# Test system: RAW264.7
# Assay remarks: Antiproliferative activity against mouse RAW264.7 cells at 10 uM after 48 hrs relative to control
# Assay type: functional
Metric: Activity (%)
Record the value in %, omitting the unit from your answer.

Please give the measured Activity for this compound: CCCCC/C=C\C/C=C\C/C=C\C/C=C\CCCCCC(=O)NCCO
65

What would you report for CCCCC/C=C\C/C=C\C/C=C\CCCCC(N)=O ?
94

What would you report for CCCCCCCC/C=C\CCCCCCCC(=O)NCCO [OLEOYLETHANOLAMIDE] ?
117

What would you report for CCCCC/C=C\C/C=C\C/C=C\C/C=C\CCCCCC(N)=O ?
91

What would you report for CCCCC/C=C\C/C=C\CCCCCCCC(=O)NCCO [LINOLEOYLETHANOLAMIDE] ?
100

What would you report for CCCCC/C=C\C/C=C\C/C=C\C/C=C\CCCC(=O)NCCc1ccc(O)c(O)c1 ?
2.33

----------
# System: RAW264.7
# Assay remarks: Antiproliferative activity against mouse RAW264.7 cells at 10 uM after 48 hrs relative to control
# Type: functional
Metric: Activity (%)
Record the value in %, omitting the unit from your answer.

Please give the measured Activity for this compound: CCCCCCCC/C=C\CCCCCCCC(N)=O [OLEAMIDE]
134

What would you report for CC/C=C\C/C=C\C/C=C\CCCCCCCC(N)=O [LINOLENAMIDE] ?
126

What would you report for CCCCC/C=C\C/C=C\C/C=C\CCCCC(=O)NCCc1ccc(O)c(O)c1 ?
6.1

What would you report for CCCCCCCCCCCCCCCC(=O)NCCc1ccc(O)c(O)c1 [PALMITOYL DOPAMINE] ?
11.1

What would you report for CCCCCCCCCCCCCCCC(N)=O [PALMITAMIDE] ?
100

What would you report for CCCCCCCCCCCCCCCC(=O)NCCO [PALMIDROL] ?
66

What would you report for CCCCC/C=C\C/C=C\C/C=C\C/C=C\CCCCCC(=O)NCCc1ccc(O)c(O)c1 ?
4.32

What would you report for COc1ccc2c(c1)c(CC(=O)O)c(C)n2C(=O)c1ccc(Cl)cc1 [INDOMETHACIN] ?
177

What would you report for CCCCC/C=C\C/C=C\C/C=C\C/C=C\CCCC(=O)NCCO [ANANDAMIDE] ?
110

What would you report for CCCCC/C=C\C/C=C\C/C=C\CCCCCCC(N)=O ?
82

What would you report for CCCCCCCC/C=C\CCCCCCCC(=O)NCCc1ccc(O)c(O)c1 [OLEOYL DOPAMINE] ?
7.02

What would you report for CCCCC/C=C\C/C=C\C/C=C\C/C=C\CCCC(N)=O [ARACHIDONAMIDE] ?
91

What would you report for CCCCC/C=C\C/C=C\C/C=C\CCCCCCC(=O)NCCc1ccc(O)c(O)c1 ?
5.72

What would you report for CCCCC/C=C\C/C=C\C/C=C\CCCCCCC(=O)NCCO ?
70

What would you report for CCCCC/C=C\C/C=C\C/C=C\CCCCC(=O)NCCO ?
87

----------
# Assay remarks: Antiproliferative activity against human WI38 cells at 10 uM after 48 hrs relative to control
# Assay type: cell-based
# Experimental setup: wi-38, 48 h
I'd be grateful if you could share measured Activity for these entries.
Record the value in %, omitting the unit from your answer.

Please give the measured Activity for this compound: COc1ccc2c(c1)c(CC(=O)O)c(C)n2C(=O)c1ccc(Cl)cc1
144

What would you report for CCCCCCCC/C=C\CCCCCCCC(N)=O [OLEAMIDE] ?
94

What would you report for CCCCC/C=C\C/C=C\C/C=C\CCCCCCC(=O)NCCO ?
54

What would you report for CCCCC/C=C\C/C=C\C/C=C\CCCCCCC(N)=O ?
58

What would you report for CCCCC/C=C\C/C=C\C/C=C\CCCCCCC(=O)NCCc1ccc(O)c(O)c1 ?
25.5

What would you report for CCCCC/C=C\C/C=C\C/C=C\CCCCC(N)=O ?
33

What would you report for CCCCCCCC/C=C\CCCCCCCC(=O)NCCc1ccc(O)c(O)c1 ?
24

What would you report for CCCCCCCCCCCCCCCC(N)=O [PALMITAMIDE] ?
118

What would you report for CCCCC/C=C\C/C=C\C/C=C\C/C=C\CCCC(=O)NCCc1ccc(O)c(O)c1 ?
22.1

What would you report for CCCCC/C=C\C/C=C\C/C=C\CCCCC(=O)NCCc1ccc(O)c(O)c1 ?
38.3

What would you report for CCCCC/C=C\C/C=C\C/C=C\CCCCC(=O)NCCO ?
54

What would you report for CCCCC/C=C\C/C=C\C/C=C\C/C=C\CCCCCC(N)=O ?
61

What would you report for CCCCC/C=C\C/C=C\C/C=C\C/C=C\CCCC(N)=O [ARACHIDONAMIDE] ?
58

What would you report for CCCCC/C=C\C/C=C\C/C=C\C/C=C\CCCCCC(=O)NCCc1ccc(O)c(O)c1 ?
25.7

What would you report for CCCCC/C=C\C/C=C\CCCCCCCC(=O)NCCO [LINOLEOYLETHANOLAMIDE] ?
63

What would you report for CCCCC/C=C\C/C=C\C/C=C\C/C=C\CCCCCC(=O)NCCO ?
24

What would you report for CCCCCCCCCCCCCCCC(=O)NCCO ?
130

What would you report for CC/C=C\C/C=C\C/C=C\CCCCCCCC(N)=O [LINOLENAMIDE] ?
85

What would you report for CCCCCCCCCCCCCCCC(=O)NCCc1ccc(O)c(O)c1 ?
41.6

What would you report for CCCCC/C=C\C/C=C\C/C=C\C/C=C\CCCC(=O)NCCO [ANANDAMIDE] ?
74

What would you report for CCCCCCCC/C=C\CCCCCCCC(=O)NCCO [OLEOYLETHANOLAMIDE] ?
140
